target: Respiratory Syncytial Virus fusion glycoprotein (RSV F) on RSV-A2 virus (Respiratory Syncytial Virus subtype A (RSV-A2)); assay: cell-based or functional assay
propertyName: Neutralization IC50 (RSV subtype A)

>  <binder>
ADI-41234 (antibody, V domains shown) VH: QVQLVQSGGGVVQPGRSLRLSCAASGFTVSSYAIHWVRQSAGKGLEWVAVEGRFTISRDNSKNTLYLQMNSLRAEDTAVYYCARLSEALVEPAAHTQYKYHYGLDVWGQGTTVTVSS VL: EIVLTQSPLSLPVTPGEPASISCKSSQSLLDSNGYNYLDWYLQKPGQSPQLLIYLVSNRASGVPDRFSGSGSGTDFTLKISRVEAEDVGIYYCMQALQTPWTFGQGTKVEIK

>  <result>
0.1 µg/mL

$$$$
>  <binder>
ADI-41197 (antibody, V domains shown) VH: QVQLVQSGAEVKKPGASVKVSCKASGYTFSGYYMHWVRQAPGQGLEWVGRINPKSGDTVYAQKFQGRVTMTRDTSISTAYMELSRLISDDTAKYYCARQEDHYYGSGNFYNSFDFWGQGTLVTVSS VL: ETTLTQSPSSLSASVGDRVTITCRASQSISSNLNWYQQKPGKAPKLLIYGASTLQSGVPSRFSGSGSGTDFTLTISSLQPEDLATYYCQQSYSNPGKTFGQGTKVDIK

>  <result>
0.27 µg/mL

$$$$
>  <binder>
ADI-41226 (antibody, V domains shown) VH: EVQLVESGGGLVKPGGSLRLSCAASRFTFAGYYMSWIRQAPGKGLEWVSDISPSSTYTNYADSVKGRFTISRDNAGTSVSLQMDSLRADDTAVYYCARITPYGGSHYFDSWGQGTLVTVSS VL: QPVLTQPPSVSGAPGQRVTISCTGSSSNIGAGYDLHWYQQLPGTAPKLLIYGNSNRPSGVPDRFSGSKSGTSASLAITGLQAEDEADYYCQSYDNSLSGFYVFGTGTKVTVL

>  <result>
0.15 µg/mL

$$$$
